Tested on: PA-1
Protocol Details: Primary qHTS to identify gynecologic anti-cancer compounds using libraries of approved drugs and bioactive compounds (AID 1345084); note: nearly all actives have a fitted effect of over 55% in size
Test Conditions: Gynecologic cancer cell panel viability, ATPlite luminescence, 48 h; series mostly up to 57.5 µM
Results filed as inconclusive are left out. The source made the active and inactive calls. Calls come from the whole dose curve; as a rule, active = well fitted cell-killing curve with a large enough effect; inconclusive = small, poorly fitted or top-dose-only effect, or effect the other way; inactive = flat fitted curve, though single readings scatter.
Just give me one of these, please: yes (1) = active, no (0) = inactive

INPUT: Call for entry `CCCc1ccc(OCC(=O)N(Cc2nc(-c3cccnc3)no2)C(C)C)cc1` :
OUTPUT: no (0)

INPUT: Kindly provide the recorded test outcome for the following compound: `C[C@@H](NC(=O)[C@H](O)c1cc(F)cc(F)c1)C(=O)N[C@@H]1C(=O)N(C)c2ccccc2-c2ccccc21`
OUTPUT: no (0)

INPUT: # fetch the recorded call for O=C1c2ccc(Nc3ccc(F)cc3F)cc2CCc2ccc(OCC(O)CO)cc21 (configuration not stated) here
OUTPUT: no (0)

INPUT: Lab log entry: CCNC(=O)Nc1ccc(-c2nc3c(c(N4CCOCC4C)n2)CCN(C2COC2)C3)cc1 (configuration not stated) — outcome as called in the assay?
OUTPUT: yes (1)

INPUT: Could you check what this test reported for `NCCOc1cc(C(=O)Nc2cc(OCCN)c3ccccc3n2)nc(C(=O)Nc2cc(OCCN)c3ccccc3n2)c1` ?
OUTPUT: yes (1)

INPUT: Which outcome was entered for the compound `CCc1cccc(CC)c1-n1c(C=C(C)C)c(C(=O)N2CCNCC2)cc(-c2nc(-c3ccc(C(F)(F)F)cc3)cs2)c1=O` in this test?
OUTPUT: no (0)

INPUT: Answer briefly: the call reported for `C[C@@H](O[C@H]1OCCN(Cc2nn(P(=O)(O)O)c(=O)[nH]2)[C@H]1c1ccc(F)cc1)c1cc(C(F)(F)F)cc(C(F)(F)F)c1` in this assay.
OUTPUT: no (0)

INPUT: Assay outcome for `Cc1nc(C#Cc2ccnc(Cl)c2)c(C)n1-c1ccc(F)cc1` : what was it?
OUTPUT: no (0)

INPUT: What was the test verdict on `C#CCOc1ccc2c(c1)c(-c1ccc(C(C)C)cc1)nc(=O)n2C(C)C` ?
OUTPUT: no (0)

INPUT: How did this test come out for `Cc1cccc(C#Cc2cc(F)cc(C#N)c2)n1` ?
OUTPUT: no (0)

INPUT: What is the recorded call for this compound in the test? COC(=O)CC1OC(C)C2=C(O)c3c(O)cccc3C(=O)C23OC13 (configuration not stated)
OUTPUT: yes (1)

INPUT: How was `Clc1ncoc1-c1c[nH]c2ccccc12` classified in this test?
OUTPUT: no (0)

INPUT: What did the test return for `Cn1nc(C(C)(C)C)cc1C(=O)N[C@@H](Cc1cccc(Cl)c1)C(=O)NCC#N` ?
OUTPUT: no (0)

INPUT: For `O=C(N[C@H]1CCC[C@H](CO)C1)C1CCN(c2nc3cc(Cl)c(-c4ccc(Cl)cc4)cc3o2)CC1` , which call appears in the assay record?
OUTPUT: no (0)

INPUT: Write down the call the test reported for this compound. Item: CC(C)/C=C1\NC(=O)C(C(C)C)n2c1nc1ccccc1c2=O (configuration not stated)
OUTPUT: no (0)
